The entries below come with measured self-cleavage kobs at 2500 uM GlcN6P values attached.
B1: glmS ribozyme (parent)
chain: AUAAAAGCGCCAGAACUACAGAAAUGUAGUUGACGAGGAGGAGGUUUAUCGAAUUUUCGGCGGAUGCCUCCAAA

Variants of: B1
Assay: self-cleavage kobs at 2500 uM GlcN6P; higher = faster cleavage; RNA array
Details: with glucosamine-6-phosphate
Fewer inactive variants are shown than the library holds.
Kindly provide the numeric value in s⁻¹ only, without the unit symbol.

Consider the reported self-cleavage kobs at 2500 uM GlcN6P for these variants:
G29A U46C : 0.000139
U45A C70G : 0.00053
U30A G40A C71A : 0.00142

Q: Please look up its self-cleavage kobs at 2500 uM GlcN6P: C11G A14C U69A
Result: 9.25e-05

Q: Please look up its self-cleavage kobs at 2500 uM GlcN6P: U65A C68G
Result: 4.97e-05

Q: Please look up its self-cleavage kobs at 2500 uM GlcN6P: A12G U56C
Result: 9.57e-05
